# TESTED SYSTEM: hLTBP1-proTGFβ1 (human, UniProt Q14766 347-1721; P01137 30-390, limits assumed)
# Sequence (Q14766 347-1721 limits assumed, chain 1 of 2): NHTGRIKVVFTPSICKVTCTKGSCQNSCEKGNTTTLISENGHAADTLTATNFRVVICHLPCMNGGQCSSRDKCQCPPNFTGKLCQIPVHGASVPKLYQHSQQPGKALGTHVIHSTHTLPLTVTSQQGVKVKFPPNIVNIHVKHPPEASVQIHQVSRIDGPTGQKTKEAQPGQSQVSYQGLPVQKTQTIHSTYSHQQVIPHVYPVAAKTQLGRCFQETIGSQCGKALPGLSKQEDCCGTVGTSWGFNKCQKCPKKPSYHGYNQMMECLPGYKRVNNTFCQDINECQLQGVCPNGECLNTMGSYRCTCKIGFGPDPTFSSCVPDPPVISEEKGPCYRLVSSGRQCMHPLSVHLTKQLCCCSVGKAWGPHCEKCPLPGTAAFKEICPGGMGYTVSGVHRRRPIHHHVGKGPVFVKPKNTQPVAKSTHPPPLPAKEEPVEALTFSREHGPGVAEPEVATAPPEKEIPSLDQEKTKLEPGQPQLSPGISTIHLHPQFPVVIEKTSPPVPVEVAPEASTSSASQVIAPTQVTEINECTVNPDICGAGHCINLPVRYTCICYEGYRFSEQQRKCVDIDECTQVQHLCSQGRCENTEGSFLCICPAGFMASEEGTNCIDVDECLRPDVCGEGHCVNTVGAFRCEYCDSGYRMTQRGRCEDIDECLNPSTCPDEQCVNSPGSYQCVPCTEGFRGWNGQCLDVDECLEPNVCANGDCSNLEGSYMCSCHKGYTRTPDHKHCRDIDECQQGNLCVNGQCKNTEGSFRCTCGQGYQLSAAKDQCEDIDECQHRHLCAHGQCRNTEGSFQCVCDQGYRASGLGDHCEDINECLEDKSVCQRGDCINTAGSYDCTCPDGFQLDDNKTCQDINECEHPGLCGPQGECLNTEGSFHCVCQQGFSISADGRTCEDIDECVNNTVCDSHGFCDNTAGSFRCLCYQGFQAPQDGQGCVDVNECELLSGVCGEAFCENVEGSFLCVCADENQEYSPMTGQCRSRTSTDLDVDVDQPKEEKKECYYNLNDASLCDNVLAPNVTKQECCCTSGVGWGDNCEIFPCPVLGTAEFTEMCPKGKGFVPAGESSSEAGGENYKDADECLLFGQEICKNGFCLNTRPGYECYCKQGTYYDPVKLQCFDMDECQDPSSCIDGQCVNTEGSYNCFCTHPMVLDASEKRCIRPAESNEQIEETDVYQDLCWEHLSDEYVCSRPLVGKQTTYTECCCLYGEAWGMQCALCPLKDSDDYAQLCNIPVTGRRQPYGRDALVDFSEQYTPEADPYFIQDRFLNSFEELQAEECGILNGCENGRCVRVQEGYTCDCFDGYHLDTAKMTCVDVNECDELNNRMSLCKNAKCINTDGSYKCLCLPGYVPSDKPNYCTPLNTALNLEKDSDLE
# Sequence (P01137 30-390 limits assumed, chain 2 of 2): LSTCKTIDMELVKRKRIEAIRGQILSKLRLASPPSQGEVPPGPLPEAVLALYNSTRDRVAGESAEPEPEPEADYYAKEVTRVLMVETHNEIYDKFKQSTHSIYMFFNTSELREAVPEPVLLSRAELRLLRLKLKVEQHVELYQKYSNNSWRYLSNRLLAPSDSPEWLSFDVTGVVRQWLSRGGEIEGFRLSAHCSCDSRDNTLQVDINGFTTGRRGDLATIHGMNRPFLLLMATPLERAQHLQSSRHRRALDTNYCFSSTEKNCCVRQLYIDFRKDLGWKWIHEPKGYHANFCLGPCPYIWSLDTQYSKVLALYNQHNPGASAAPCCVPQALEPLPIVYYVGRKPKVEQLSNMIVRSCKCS
# PROTOCOL DETAILS: cell-based or functional assay
READOUT KIND: IC50, reporter cell assay (nM)
Please respond with the number in nM and leave the unit unwritten.

The examples below pair each entry with its known result.
Ab4 (antibody, V domains shown) VH: EVQLVESGGGLVQPGGSLRLSCAASGFTFSSYSMNWVRQAPGKGLEWVSYISSSSSTIYYADSVKGRFTISRDNAKNSLYLQMNSLRAEDTAVYYCARGVLDYGDMLDPWGQGTLVTVSS VL: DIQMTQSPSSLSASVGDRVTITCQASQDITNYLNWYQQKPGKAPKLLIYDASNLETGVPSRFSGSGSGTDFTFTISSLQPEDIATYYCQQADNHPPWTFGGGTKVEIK :: 5.2
Ab29 (antibody, V domains shown) VH: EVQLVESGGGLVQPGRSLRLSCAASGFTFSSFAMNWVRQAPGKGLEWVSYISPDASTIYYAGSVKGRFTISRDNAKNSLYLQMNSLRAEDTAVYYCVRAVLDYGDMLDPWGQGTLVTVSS VL: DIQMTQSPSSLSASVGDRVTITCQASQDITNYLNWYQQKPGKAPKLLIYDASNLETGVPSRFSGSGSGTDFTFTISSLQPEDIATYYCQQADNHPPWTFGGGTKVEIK :: 0.5

With those in mind, consider the next binder.
Which IC50, reporter cell assay is listed for Ab5 (antibody, V domains shown) VH: EVQLVESGGGLVQPGGSLRLSCAASGFTFSSFSMDWVRQAPGKGLEWVSYISPDASTIYYADSVKGRFTISRDNAKNSLYLQMNSLRAEDTAVYYCARGVLDYGDMLDPWGQGTLVTVSS VL: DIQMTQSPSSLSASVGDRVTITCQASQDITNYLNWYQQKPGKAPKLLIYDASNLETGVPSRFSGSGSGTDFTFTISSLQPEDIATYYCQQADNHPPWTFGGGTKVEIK ?
1.3

Where do the numbers come from? From patent US20240294623A1.
